Values compiled from patent US6242437A.

Measured MIC (S. epidermidis ATCC14990)
Include the unit after the number when you answer.

Example results:
• CO/N=C(\C(=O)N[C@@H]1C(=O)N2C(C(=O)[O-])=C(C[n+]3ccn4ncccc43)CS[C@H]12)c1nsc(N)n1 [Control 1, Cefozopran, reference compound] = 0.78 µg/mL
• CO/N=C(\C(=O)N[C@@H]1C(=O)N2C(C(=O)[O-])=C(C[n+]3cc4sccn4c3CNS(N)(=O)=O)CS[C@H]12)c1nsc(N)n1 = 0.78 µg/mL

// field: MIC; key: Nc1nc(/C(=N/OCF)C(=O)N[C@@H]2C(=O)N3C(C(=O)[O-])=C(C[n+]4cc5sccn5c4CNS(N)(=O)=O)CS[C@H]23)ns1 ; value = 0.78 µg/mL

// field: MIC; key: CO/N=C(\C(=O)N[C@@H]1C(=O)N2C(C(=O)[O-])=C(C[n+]3cccc4c3CCC4)CS[C@H]12)c1csc(N)n1 [Control 2, Cefpirome, reference compound] ; value = 0.39 µg/mL
